- protocol: Acute toxicity test, oral, mouse
- experimentalConditions: in vivo
Structures can show the parent of a compound that is named as a salt.
Entries and their LD50 values follow.
Please respond with the number in mg/kg and leave the unit unwritten.

Below: 3 compounds and their reported LD50.
CCCC(=O)Nc1c2c(nc3ccccc13)CCCC2 = 1000
O=C1CN(CC(=O)Nc2c3c(nc4ccccc24)CCCC3)C(=O)CN1 = 2100
Nc1c2c(nc3ccccc13)CCCC2 [9-Amino-1,2,3,4-tetrahydroacridine, reference compound] = 67

# evaluate next
Request: Consider the compound O=C(CN1CCCC1=O)Nc1c2c(nc3ccccc13)CCCC2 [Example 14, hydrochloride] . State its measured LD50.
Response: 2300

###

- System: Na^+ dependent high-affinity choline uptake (HACU) of AF64A-treated rat hippocampus
- protocol: Na+ dependent high-affinity choline uptake (HACU) in crude synaptosomal fraction of AF64A-treated rat hippocampus
- Format: biochemical
- experimentalConditions: 10^-7 M; HACU, AF64A-treated rat hippocampus synaptosomal fraction; [3H]choline 1 μM; 37° C.
valueType: Improved ratio (% based on Control) (%)
Answer in %, number only, no unit symbol.

Recorded Improved ratio (% based on Control), per entry:
Nc1c2c(nc3ccccc13)CCCC2 [9-Amino-1,2,3,4-tetrahydroacridine, reference compound] = 5
Cc1ccc2nc3c(c(NC(=O)CN4CCCC4=O)c2c1)CCCC3 = -5
CNCC(=O)Nc1c2c(nc3ccccc13)CCCC2 = 8
CN1CCc2nc3ccccc3c(NC(=O)CN3CCCC3=O)c2C1 = 21

Request: Give Na^+ dependent high-affinity choline uptake (HACU) of AF64A-treated rat hippocampus Improved ratio (% based on Control) for the following compound: "CCCCC(=O)Nc1c2c(nc3ccccc13)CCCC2"
Response: 5

###

The molecules listed here are annotated with their Improved ratio (% based on Control).
- System: Na^+ dependent high-affinity choline uptake (HACU) of AF64A-treated rat hippocampus
- protocol: Na+ dependent high-affinity choline uptake (HACU) in crude synaptosomal fraction of AF64A-treated rat hippocampus
- Assay type: biochemical
- experimentalConditions: 10^-7 M; HACU, AF64A-treated rat hippocampus synaptosomal fraction; [3H]choline 1 μM; 37° C.
Reply with just the number (in %).

Use these answered entries as a reference point.
O=C1CN(CC(=O)Nc2c3c(nc4ccccc24)CCCC3)C(=O)CN1 [Example 37] = 9
CCCC(=O)Nc1c2c(nc3ccccc13)CCCC2 [Example 1] = 13
CCOC(=O)CNCC(=O)Nc1c2c(nc3ccccc13)CCCC2 [Example 40] = 18
CCCC(=O)Nc1c2c(nc3ccccc13)CCC(O)C2 (centres unmarked) [Example 53] = 18

Alright, here's another molecule for you.
Request: State its Improved ratio (% based on Control): O=C(CN1CCCC1=O)Nc1c2c(nc3ccccc13)CCN(Cc1ccccc1)C2 [Example 21]
Response: 11

###

- System: Na^+ dependent high-affinity choline uptake (HACU) of AF64A-treated rat hippocampus
- protocol: Na+ dependent high-affinity choline uptake (HACU) in crude synaptosomal fraction of AF64A-treated rat hippocampus
- Type: biochemical
- experimentalConditions: 10^-8 M; HACU, AF64A-treated rat hippocampus synaptosomal fraction; [3H]choline 1 μM; 37° C.
valueType: Improved ratio (% based on Control) (%)
# number only, unit % dropped from output

Please review the entries below; each comes with its answer.
NC(=O)NCC(=O)Nc1c2c(nc3ccccc13)CCCC2 [Example 46] = -8
Cc1ccc2nc3c(c(NC(=O)CN4CCCC4=O)c2c1)CCCC3 [Example 15] = 3
CC(=O)N(C)CC(=O)Nc1c2c(nc3ccccc13)CCCC2 [Example 42] = 11

Request: Give Na^+ dependent high-affinity choline uptake (HACU) of AF64A-treated rat hippocampus Improved ratio (% based on Control) for the following compound: CCCCC(=O)Nc1c2c(nc3ccccc13)CCCC2 [Example 4]
Response: 4

Request: Report its Improved ratio (% based on Control) with Na^+ dependent high-affinity choline uptake (HACU) of AF64A-treated rat hippocampus as the test system: CC(C)C(=O)Nc1c2c(nc3ccccc13)CCCC2 [Example 3]
Response: 13

Request: Answer with Improved ratio (% based on Control) of CCCC(=O)Nc1c2c(nc3ccccc13)CCC(O)C2 (stereo not shown) [Example 53] measured for Na^+ dependent high-affinity choline uptake (HACU) of AF64A-treated rat hippocampus.
Response: 14

Request: For Na^+ dependent high-affinity choline uptake (HACU) of AF64A-treated rat hippocampus, give Improved ratio (% based on Control) of the listed compound: CNC(=O)N1CCc2nc3ccccc3c(NC(=O)CN3CCCC3=O)c2C1 [Example 50]
Response: 4

Request: Please respond with reported Improved ratio (% based on Control) (system Na^+ dependent high-affinity choline uptake (HACU) of AF64A-treated rat hippocampus) for O=C1CN(CC(=O)Nc2c3c(nc4ccccc24)CCCC3)C(=O)CN1 [Example 37] .
Response: 14

Request: Under Na^+ dependent high-affinity choline uptake (HACU) of AF64A-treated rat hippocampus: report Improved ratio (% based on Control) of O=C(CN1C(=O)CCC1=O)Nc1c2c(nc3ccccc13)CCCC2 [Example 35] .
Response: 2

Request: Quote Na^+ dependent high-affinity choline uptake (HACU) of AF64A-treated rat hippocampus Improved ratio (% based on Control) for entry O=C(Cn1ccnc1)Nc1c2c(nc3ccccc13)CCCC2 [Example 41] .
Response: 5

Request: Provide Na^+ dependent high-affinity choline uptake (HACU) of AF64A-treated rat hippocampus Improved ratio (% based on Control) reading for O=C(CN1CCCC1=O)Nc1c2c(nc3ccccc13)CCN(Cc1ccccc1)C2 [Example 21] .
Response: 10

###

- Tested on: Na^+ dependent high-affinity choline uptake (HACU) of AF64A-treated rat hippocampus
- protocol: Na+ dependent high-affinity choline uptake (HACU) in crude synaptosomal fraction of AF64A-treated rat hippocampus
- Type: biochemical
- experimentalConditions: 10^-7 M; HACU, AF64A-treated rat hippocampus synaptosomal fraction; [3H]choline 1 μM; 37° C.
Structures can show the parent of a compound that is named as a salt.
Quick list: Improved ratio (% based on Control) per entry.
Your answer should be a plain number; it is taken to be in %.

Examples from the recorded data:
O=C(CN1CCCC1=O)Nc1c2c(nc3ccccc13)CCCC2 [Example 14, hydrochloride] = 19
CNC(=O)N1CCc2nc3ccccc3c(NC(=O)CN3CCCC3=O)c2C1 = 20

Please turn your attention to the following entry.
Request: Dear colleague, please send me the reported Improved ratio (% based on Control) for "O=C(CN1CCCC1=O)Nc1c2c(nc3ccccc13)C1CCN2CC1" when you can.
Response: 16

###

// reported Improved ratio (% based on Control) for each item listed
- Tested on: Na^+ dependent high-affinity choline uptake (HACU) of AF64A-treated rat hippocampus
- protocol: Na+ dependent high-affinity choline uptake (HACU) in crude synaptosomal fraction of AF64A-treated rat hippocampus
- Format: biochemical
- experimentalConditions: 10^-8 M; HACU, AF64A-treated rat hippocampus synaptosomal fraction; [3H]choline 1 μM; 37° C.
Counter-ions that a name gives are not always drawn.
All answers are understood in %, so give the number only.

Worked set:
O=C(CN1CCCC1=O)Nc1c2c(nc3sccc13)CCCC2 [Example 27] = 5
Nc1c2c(nc3ccccc13)CCCC2 [9-Amino-1,2,3,4-tetrahydroacridine, reference compound] = 2
O=C(CN1CCCC1=O)Nc1c2c(nc3ccccc13)CCCC2 [Example 14, hydrochloride] = 12
CCOC(=O)CNCC(=O)Nc1c2c(nc3ccccc13)CCCC2 [Example 40] = 8
CNCC(=O)Nc1c2c(nc3ccccc13)CCCC2 [Example 39] = 5

Request: Let me know recorded Improved ratio (% based on Control) for O=C(CN1CCCC1=O)Nc1c2c(nc3ccccc13)C1CCN2CC1 [Example 22] , thanks.
Response: 13

Request: Specify measured Improved ratio (% based on Control) for CCCC(=O)Nc1c2c(nc3ccccc13)CCCC2 [Example 1] .
Response: 20

Request: Consider the molecule CN1CCc2nc3ccccc3c(NC(=O)CN3CCCC3=O)c2C1 [Example 20] and give its recorded Improved ratio (% based on Control).
Response: 10

###

The entries below come with measured Improved ratio (% based on Control) values attached.
- Tested on: Na^+ dependent high-affinity choline uptake (HACU) of AF64A-treated rat hippocampus
- protocol: Na+ dependent high-affinity choline uptake (HACU) in crude synaptosomal fraction of AF64A-treated rat hippocampus
- Type: biochemical
- experimentalConditions: 10^-7 M; HACU, AF64A-treated rat hippocampus synaptosomal fraction; [3H]choline 1 μM; 37° C.
Answer format: numeric, % implied, no suffix.

Worked set:
CC(C)C(=O)Nc1c2c(nc3ccccc13)CCCC2 [Example 3] = 16
CC(=O)N(C)CC(=O)Nc1c2c(nc3ccccc13)CCCC2 [Example 42] = 14
O=C(CN1CCCC1=O)Nc1c2c(nc3sccc13)CCCC2 [Example 27] = 19

Request: Retrieve Improved ratio (% based on Control) measured for NC(=O)NCC(=O)Nc1c2c(nc3ccccc13)CCCC2 [Example 46] and print it.
Response: 11

Request: Specify reported Improved ratio (% based on Control) for the compound shown: O=C(CN1C(=O)CCC1=O)Nc1c2c(nc3ccccc13)CCCC2 [Example 35]
Response: 26

Request: Using the record for O=C(Cn1ccnc1)Nc1c2c(nc3ccccc13)CCCC2 [Example 41] , state its measured Improved ratio (% based on Control).
Response: 5
